TGI by entry:
# Tested on: MOLT-4 leukemia
# protocol_details: NCI tumour cell line growth inhibition, 48 h

compound: c1cnc2c(c1)-n1cccc1C1(CCCCC1)NN2
target_or_system: MOLT-4 leukemia
TGI: > 100 µM

compound: C=C1c2nc3ccccc3n2C=C(c2ccc(C)cc2)N1c1ccc(OC)cc1
target_or_system: MOLT-4 leukemia
TGI: > 100 µM

// next entry
Enter recorded TGI with MOLT-4 leukemia for N[C@@H](CCC(=O)NC(Cc1ccccc1)C(=O)NCP(=O)(O)O)C(=O)O (stereo partly drawn) here.
> 100 µM

* * *

# Test system: HCT-116 colon
# protocol_details: NCI tumour cell line growth inhibition, 48 h
quantity_measured: TGI

Some solved cases for reference:
compound: c1ccc2c(c1)[nH]c1c2nc2ccccn21
target_or_system: HCT-116 colon
observed_result: > 100 µM
--
compound: COc1ccc2c(c1)C(=O)c1c-2c(OCCCN(C)C)nc2cc(Br)ccc12
target_or_system: HCT-116 colon
observed_result: 18.5 µM
--
compound: NC(N)=N/N=C\c1ccc(OCc2ccccc2)cc1
target_or_system: HCT-116 colon
observed_result: 3.14 µM
--
compound: CCC[CH2][Sn-]([CH2]CCC)([CH2]CCC)[O]C(=O)C(C)C
target_or_system: HCT-116 colon
observed_result: 0.182 µM

Name the value of TGI reported for Cn1c(=O)oc2cc(C3CCC(=O)N3Cc3csc(-c4ccccc4)n3)ccc21 (configuration not stated) when tested on HCT-116 colon.
> 100 µM

Tell me TGI of "CN(C)CCC(=O)Nc1ccc(-n2cc(-c3cccc(NC(=S)Nc4cccc(-c5cn(-c6ccc(NC(=O)CCN(C)C)cc6)nn5)c4)c3)nn2)cc1" when tested on HCT-116 colon.
40.4 µM

Tell me its TGI on HCT-116 colon: O=C(c1ccccc1)C1N=NN(Cc2ccccc2[N+](=O)[O-])C1C(=O)c1ccccc1 (configuration not stated)
> 100 µM

* * *

# System: HL-60(TB) leukemia
# protocol_details: NCI tumour cell line growth inhibition, 48 h
quantity_measured: TGI

compound: O=C(Nc1n[nH]c2cc(-c3cc(F)ccc3F)ccc12)C1CC1
quantity_measured: TGI
observed_result: > 25 µM

Using the record for "C[C@]12CC[C@H]3[C@@H](CC=C4C[C@@H](N5CCCC5)CC[C@@]43C)[C@@H]1C[C@H](N1CCCCC1)[C@@H]2O" , state its measured TGI.
> 100 µM

Return reported TGI. Input compound: N=C1CCCC1C(=S)SCCC(N)=O (stereo not given)
> 100 µM

State its TGI for this compound: "Cc1c(C)c([N+](=O)[O-])c2c(c1N)C(=O)c1ccccc1C2=O"
> 100 µM

Provide only the value of recorded TGI for OCC(O)C(O)C(O)C(/C=N\Nc1ncnc2c(Br)cc(Br)cc12)=N/Nc1ncnc2c(Br)cc(Br)cc12 (stereo not given)
> 100 µM

* * *

# Tested on: SN12C renal
# protocol_details: NCI tumour cell line growth inhibition, 48 h
The molecules listed here are annotated with their TGI.
Write the number in µM without appending the unit.

Solved entries (count: 4):
molecule: COc1cc(O)ccc1C(=S)SC
TGI, µM: 9.56

molecule: O=S(=O)(NC1=NCCN1C(=S)SN1CCn2c1nsc2=S)c1ccc(Cl)cc1
TGI, µM: 22.5

molecule: O=C1c2cccc3cccc(c23)C(=O)N1CCCCCN1CCN(CCN=c2cc3n(-c4ccc(Cl)cc4)c4ccccc4nc-3cc2Nc2ccc(Cl)cc2)CC1
TGI, µM: 26.4

molecule: CCCCCCCC/C=C/CCCCCCCC1=NC(C)(C)CN1C(C)(C)CO
TGI, µM: 6.67

Next:
Return the recorded TGI value; entry: CCC1(c2ccc(N3C(=O)c4cccc5cc([N+](=O)[O-])cc(c45)C3=O)cc2)CCC(=O)NC1=O (configuration not stated)
24.8

* * *

# Tested on: SF-295 CNS
# protocol_details: NCI tumour cell line growth inhibition, 48 h
quantity_measured: TGI

Observe how each entry below is paired with its result.
molecule: CC(C)C[C@@H](N)[C@@H](O)C(=O)N[C@H](C(=O)N[C@H](C(=O)N[C@@H](CC(=O)O)C(=O)O)C(C)C)C(C)C
observed_result: > 20 µM

molecule: CC1=C(C)C(=O)C(C2=CC(=O)c3ccccc3C2=O)=C(C2=CC(=O)c3ccccc3C2=O)C1=O
observed_result: > 55.2 µM

molecule: O=C1NC(O)c2cc3ccccc3cc2O1 (configuration not stated)
observed_result: > 100 µM

molecule: C=C(Br)CN=CN(C)C
observed_result: > 100 µM

molecule: NC(=O)CCC(N=c1c2ccccc2n(O)c2ccccc12)C(=O)O (configuration not stated)
observed_result: > 100 µM

molecule: O=C(Nc1ccc(Cl)cc1C(F)(F)F)C(=O)Nn1c(=S)[nH]c2ccccc2c1=O
observed_result: > 100 µM

molecule: CC(=O)NC1C(OCc2ccccc2)OC(CO)C(O)C1OC(C)C(=O)N[C@@H](C)C(=O)N[C@H](CCC(=O)NCCNCCNc1c2ccccc2nc2cccc([N+](=O)[O-])c12)C(N)=O (some centres not stated)
observed_result: 1.79 µM

molecule: Cn1c(=O)oc2cc(C3CCC(=O)N3Cc3csc(-c4ccccc4)n3)ccc21 (configuration not stated)
observed_result: > 100 µM

molecule: CC(C)(CO[C@H]1C[C@H]2CC[C@@]1(C)C2(C)C)[N+](=O)[O-]
observed_result: 33.9 µM

molecule: O=C(Nc1n[nH]c2cc(-c3cc(F)ccc3F)ccc12)C1CC1
observed_result: > 25 µM

Specify measured TGI for "CCCCCCCC/C=C/CCCCCCCC1=NC(C)(C)CN1C(C)(C)CO" .
3.52 µM

Answer with the recorded TGI for the molecule listed here: "NC(=O)[C@H](Cc1ccc(O)cc1)Nc1c(O)c2c(c(O)c1Cl)C(=O)C=CC2=O"
> 10 µM

Answer with the recorded TGI for the molecule listed here: CN(CCCCCl)P(=O)(OCc1ccc([N+](=O)[O-])o1)OCC1OC(n2ccc(N)nc2=O)C(O)C1O (configuration not stated)
57.7 µM

Look up and report measured TGI for this entry: "O=C1c2ccccc2-c2nc3ccncc3n21"
> 100 µM

Find the measured TGI of COc1cc(N2C(=O)[C@H](Cl)C2c2ccc(SC)cc2)cc(OC)c1OC (some centres not stated) and report it.
> 100 µM

Supply reported TGI belonging to this molecule: "CC(=O)C(=Cc1cn(C)c(=O)n(C)c1=O)C(C)=O"
254 µM

Return reported TGI. Input molecule: "C/C(=N\Nc1nc2ccccc2s1)c1ccncn1"
20.5 µM

Query TGI for "O=C(Nc1sc2c(c1C(=O)O)CCCC2)c1ccco1"
> 50 µM

* * *

# Tested on: RXF 393 renal
# protocol_details: NCI tumour cell line growth inhibition, 48 h
# TGI annotations

Recall and state the measured TGI for CC1=NN(c2cccc(Cl)c2)C(=O)/C1=C\c1cn(CC(O)CN2CCCCC2)c2ccccc12 (stereo not given) .
17.5 µM

Consider the compound "CCCCCC[C@H]([C@H](C)O)n1cnc2c(N)ncnc21" and give its recorded TGI.
> 100 µM

* * *

Known TGI of a selection of molecules
# System: SNB-19 CNS
# protocol_details: NCI tumour cell line growth inhibition, 48 h

Some molecules with recorded TGI:
molecule: Cc1cc2c(c(C(=O)O)c1C)-c1cccc(Cl)c1C2=O
target_or_system: SNB-19 CNS
observed_result: > 100 µM
//
molecule: CC(=O)n1[nH]c(=O)n(-c2ccc(Cl)cc2)c1=O
target_or_system: SNB-19 CNS
observed_result: > 100 µM
//
molecule: Nc1[nH]c(=O)nc2c1ncn2C1OC(CO)C(O)C1O (configuration not stated)
target_or_system: SNB-19 CNS
observed_result: > 100 µM

Tell us which TGI value is on record for "CN(C)C(=S)/N=c1\ss/c(=N\C(=S)N(C)C)n1-c1cccc(Cl)c1"
> 100 µM

Please indicate TGI recorded for COc1ccc(-c2ccc(C3CC(c4ccccc4)=NN3)o2)c([N+](=O)[O-])c1 (configuration not stated)
> 100 µM

Kindly indicate its recorded TGI. Item: "O=S(=O)(Nc1nc2ccccc2nc1N1CCCCCC1)c1ccccc1"
> 100 µM

// fetch TGI given entry "O=C(Nc1sc2c(c1C(=O)O)CCCC2)c1ccco1"
> 50 µM

Name the recorded TGI of the item CCOC(=O)c1c(N)sc2c1C(C(=O)OCC)CCCC2 (configuration not stated) in your answer.
> 100 µM

Give reported TGI value for "N#CCCC(C=O)(CCC#N)CCC#N"
> 100 µM

Entry "Cc1c(C)c([N+](=O)[O-])c2c(c1N)C(=O)c1ccccc1C2=O" needs its TGI filled in; supply it.
> 100 µM

In one line, give reported TGI of the entry "CCOc1c(Br)cc(Br)cc1C=C(C#N)C#N" .
> 10 µM

Return the recorded TGI value; entry: CCN(CC)C(=S)SC(C(=O)Nc1nnc(-c2ccc(Cl)cc2)o1)c1ccccc1 (configuration not stated)
> 100 µM

Answer with the recorded TGI of COC(=O)C1CC(c2ccc(OC)c(OC)c2)OC1=O (mixture of isomers) only.
> 100 µM

Tell me measured TGI for "CCOP(=O)(/C=C/n1cc(C)c(=O)[nH]c1=O)OCC" please.
> 100 µM

Give recorded TGI. "C[n+]1cccc2ccc3cccnc3c21"
> 100 µM

For the molecule "CN(C)CCC(=O)Nc1ccc(-n2cc(-c3cccc(NC(=S)Nc4cccc(-c5cn(-c6ccc(NC(=O)CCN(C)C)cc6)nn5)c4)c3)nn2)cc1" , report TGI.
> 100 µM
